# TEST_DETAILS: clinical
# CONDITIONS: human, in vivo
Form field: concentration at 7 h (one value per entry).

| COMPOUND | concentration at 7 h / ng/mL |
| --- | --- |
| CC[C@H](C)C(=O)O[C@H]1C[C@H](O)C=C2C=C[C@H](C)[C@H](CC[C@@H](O)C[C@@H](O)CC(=O)O)[C@H]21 [Pravastatin sodium, pravastatin sodium] | 9.73 |
| CCCCc1nc(Cl)c(CO)n1Cc1ccc(-c2ccccc2-c2nn[nH]n2)cc1 | 21.8 |

* * *

# TEST_DETAILS: clinical
# CONDITIONS: human, plasma, oral
ASSAY_METRIC: concentration at 2 h (ng/mL)

| COMPOUND | ASSAY_METRIC | ENDPOINT_UNIT | QUANTITATIVE_READOUT |
| --- | --- | --- | --- |
| O=C(O)c1ccccc1O [Salicylic acid] | concentration at 2 h | ng/mL | 28.8 |

* * *

# TEST_DETAILS: clinical
# CONDITIONS: human, in vivo
ASSAY_METRIC: concentration at 10 h

| COMPOUND | RESULT |
| --- | --- |
| CC[C@H](C)C(=O)O[C@H]1C[C@H](O)C=C2C=C[C@H](C)[C@H](CC[C@@H](O)C[C@@H](O)CC(=O)O)[C@H]21 [Pravastatin sodium, pravastatin sodium] | 6.53 ng/mL |
| CCCCc1nc(Cl)c(CO)n1Cc1ccc(-c2ccccc2-c2nn[nH]n2)cc1 | 6.01 ng/mL |

* * *

# TEST_DETAILS: clinical
# CONDITIONS: human, in vivo
ASSAY_METRIC: concentration at 4 h (ng/mL)

| MOLECULE | ENDPOINT_UNIT | QUANTITATIVE_READOUT |
| --- | --- | --- |
| CCCCc1nc(Cl)c(CO)n1Cc1ccc(-c2ccccc2-c2nn[nH]n2)cc1 [Losartan potassium, losartan potassium] | ng/mL | 57.5 |
| CC[C@H](C)C(=O)O[C@H]1C[C@H](O)C=C2C=C[C@H](C)[C@H](CC[C@@H](O)C[C@@H](O)CC(=O)O)[C@H]21 [Pravastatin sodium, pravastatin sodium] | ng/mL | 25.8 |

* * *

# TEST_DETAILS: clinical
# CONDITIONS: human, in vivo
ASSAY_METRIC: concentration at 1 h (ng/mL)

| COMPOUND | ASSAY_METRIC | QUANTITATIVE_READOUT |
| --- | --- | --- |
| CC[C@H](C)C(=O)O[C@H]1C[C@H](O)C=C2C=C[C@H](C)[C@H](CC[C@@H](O)C[C@@H](O)CC(=O)O)[C@H]21 [Pravastatin sodium, pravastatin sodium] | concentration at 1 h | 110 |
| CCCCc1nc(Cl)c(CO)n1Cc1ccc(-c2ccccc2-c2nn[nH]n2)cc1 [Losartan potassium, losartan potassium] | concentration at 1 h | 140 |

* * *

# TEST_DETAILS: clinical
# CONDITIONS: human, in vivo
The entries below are paired with their reported concentration at 0.33 h.
ASSAY_METRIC: concentration at 0.33 h

| COMPOUND | ASSAY_METRIC | RESULT |
| --- | --- | --- |
| CCCCc1nc(Cl)c(CO)n1Cc1ccc(-c2ccccc2-c2nn[nH]n2)cc1 | concentration at 0.33 h | 137 ng/mL |
| CC[C@H](C)C(=O)O[C@H]1C[C@H](O)C=C2C=C[C@H](C)[C@H](CC[C@@H](O)C[C@@H](O)CC(=O)O)[C@H]21 [Pravastatin sodium, pravastatin sodium] | concentration at 0.33 h | 24.9 ng/mL |

* * *

# TEST_DETAILS: clinical
# CONDITIONS: human, plasma, oral

| COMPOUND | concentration at 0.5 h |
| --- | --- |
| O=C(O)c1ccccc1O [Salicylic acid] | 8.78 ng/mL |

* * *

# TEST_DETAILS: clinical
# CONDITIONS: human, in vivo
Parameter: concentration at 2.5 h. Scope: all listed entries.
ASSAY_METRIC: concentration at 2.5 h

| MOLECULE | RESULT |
| --- | --- |
| CC[C@H](C)C(=O)O[C@H]1C[C@H](O)C=C2C=C[C@H](C)[C@H](CC[C@@H](O)C[C@@H](O)CC(=O)O)[C@H]21 [Pravastatin sodium, pravastatin sodium] | 58 ng/mL |
| CCCCc1nc(Cl)c(CO)n1Cc1ccc(-c2ccccc2-c2nn[nH]n2)cc1 | 96.3 ng/mL |
